The reported numbers originate from ChEMBL document CHEMBL1131259.

System Name: UniProt:P00760
Sequence (P00760 whole entry): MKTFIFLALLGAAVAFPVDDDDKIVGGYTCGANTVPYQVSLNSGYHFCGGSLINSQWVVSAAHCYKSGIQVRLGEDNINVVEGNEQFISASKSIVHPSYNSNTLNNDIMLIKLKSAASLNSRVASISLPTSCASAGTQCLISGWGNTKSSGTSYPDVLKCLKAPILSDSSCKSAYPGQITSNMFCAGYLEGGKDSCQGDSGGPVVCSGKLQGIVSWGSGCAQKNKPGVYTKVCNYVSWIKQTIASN
Assay Summary: Inhibition of bovine trypsin
Given measured K obs / 1, output 1 (yes) if it is greater than or equal to 50 M⁻¹ s⁻¹ and 0 (no) if not.

**Q:** Could you verify whether the entry C[C@H](NC(=O)[C@@H](C)NC(=O)OCc1ccccc1)C(=O)NC(c1ccc(C(=N)N)cc1)P(=O)(Oc1ccccc1)Oc1ccccc1 (stereo partly specified) shows K obs / 1 of no less than 50 M⁻¹ s⁻¹?
**A:** 1 (yes)

**Q:** Now this one: N=C(N)c1ccc(C(NC(=O)/C=C/c2ccccc2)P(=O)(Oc2ccccc2)Oc2ccccc2)cc1 (stereo unspecified)
**A:** 1 (yes)

**Q:** Next: N=C(N)c1ccc(C(NC(=O)[C@@H]2CCCN2C(=O)CCc2ccccc2)P(=O)(Oc2ccccc2)Oc2ccccc2)cc1 (stereo partly specified)
**A:** 1 (yes)
